Dear all, this message contains IC50 results, target or system lactate dehydrogenase B (LDHB) (Homo sapiens, UniProt P07195).

IC50 recorded for this compound, Nc1ncnc2c1ncn2[C@@H]1O[C@H](COP(=O)(O)O)[C@@H](O)[C@H]1O [AMP] , is 51400 µM

IC50 recorded for this compound, Nc1ncnc2c1ncn2[C@@H]1O[C@H](COP(=O)(O)OP(=O)(O)O)[C@@H](O)[C@H]1O [ADP] , is 14900 µM

IC50 recorded for this compound, CCCCCCCCCCCCCCCC(=O)SCCNC(=O)CCNC(=O)[C@H](O)C(C)(C)COP(=O)(O)OP(=O)(O)OC[C@H]1O[C@@H](n2cnc3c(N)ncnc32)[C@H](O)[C@@H]1OP(=O)(O)O [C16:0-CoA] , is > 100 µM

IC50 recorded for this compound, CCCCCCCCCCCCCCCCCCCC(=O)SCCNC(=O)CCNC(=O)[C@H](O)C(C)(C)COP(=O)(O)OP(=O)(O)OC[C@H]1O[C@@H](n2cnc3c(N)ncnc32)[C@H](O)[C@@H]1OP(=O)(O)O [C20:0-CoA] , is > 100 µM

IC50 recorded for this compound, CCCCCCCC/C=C\CCCCCCCC(=O)SCCNC(=O)CCNC(=O)[C@H](O)C(C)(C)COP(=O)(O)OP(=O)(O)OC[C@H]1O[C@@H](n2cnc3c(N)ncnc32)[C@H](O)[C@@H]1OP(=O)(O)O [C18:1-CoA] , is > 100 µM

IC50 recorded for this compound, CC(=O)SCCNC(=O)CCNC(=O)[C@H](O)C(C)(C)COP(=O)(O)OP(=O)(O)OC[C@H]1O[C@@H](n2cnc3c(N)ncnc32)[C@H](O)[C@@H]1OP(=O)(O)O [C2:0-CoA] , is > 100 µM

IC50 recorded for this compound, CCCC(=O)SCCNC(=O)CCNC(=O)[C@H](O)C(C)(C)COP(=O)(O)OP(=O)(O)OC[C@H]1O[C@@H](n2cnc3c(N)ncnc32)[C@H](O)[C@@H]1OP(=O)(O)O [C4:0-CoA] , is > 100 µM

IC50 recorded for this compound, CCCCCCCCCCCC(=O)SCCNC(=O)CCNC(=O)[C@H](O)C(C)(C)COP(=O)(O)OP(=O)(O)OC[C@H]1O[C@@H](n2cnc3c(N)ncnc32)[C@H](O)[C@@H]1OP(=O)(O)O [C12:0-CoA] , is > 100 µM

IC50 recorded for this compound, CCCCCCCC(=O)SCCNC(=O)CCNC(=O)[C@H](O)C(C)(C)COP(=O)(O)OP(=O)(O)OC[C@H]1O[C@@H](n2cnc3c(N)ncnc32)[C@H](O)[C@@H]1OP(=O)(O)O [C8:0-CoA] , is > 100 µM

* * *

Biological target: lactate dehydrogenase A (LDHA) (Homo sapiens, UniProt P00338)
Assay: biochemical
I'd be grateful if you could share measured IC50 for these entries.
Entry rule: numbers only, all in nM.

IC50 recorded for this compound, CCCCCCCC/C=C\CCCCCCCC(=O)SCCNC(=O)CCNC(=O)[C@H](O)C(C)(C)COP(=O)(O)OP(=O)(O)OC[C@H]1O[C@@H](n2cnc3c(N)ncnc32)[C@H](O)[C@@H]1OP(=O)(O)O [C18:1-CoA] , is 800

IC50 recorded for this compound, CCCCCCCCCCCCCCCCCCCC(=O)SCCNC(=O)CCNC(=O)[C@H](O)C(C)(C)COP(=O)(O)OP(=O)(O)OC[C@H]1O[C@@H](n2cnc3c(N)ncnc32)[C@H](O)[C@@H]1OP(=O)(O)O [C20:0-CoA] , is 1010

IC50 recorded for this compound, CCCCCCCCCCCCCCCC(=O)SCCNC(=O)CCNC(=O)[C@H](O)C(C)(C)COP(=O)(O)OP(=O)(O)OC[C@H]1O[C@@H](n2cnc3c(N)ncnc32)[C@H](O)[C@@H]1OP(=O)(O)O [C16:0-CoA] , is 1540
